Test system: TTR
test_summary: TTR editing in HEK293_Cas9 cells transfected with dgRNAs (Table 4)
Format: cell-based, human
test_conditions: HEK293_Cas9 cells (constitutively express Spy Cas9) transfected with dgRNAs
Avg % Deletion listing for selected sequences.
result_type: Avg % Deletion (%)

[[record]]
macromolecule_sequence = "CACAUGCACGGCCACAUUGA (tested as dual guide RNA, chemistry not given here) [CR003350]"
measured_result = 16.77

[[record]]
macromolecule_sequence = "UACUCACCUCUGCAUGCUCA (tested as dual guide RNA, chemistry not given here) [CR003372]"
measured_result = 11.99

[[record]]
macromolecule_sequence = "CUGAGGAGGAAUUUGUAGAA (tested as dual guide RNA, chemistry not given here) [CR003364]"
measured_result = 16.48

[[record]]
macromolecule_sequence = "CCCAGAGGCAAAUGGCUCCC (tested as dual guide RNA, chemistry not given here) [CR003355]"
measured_result = 23.61


Where do these numbers come from? They come from patent US11795460B2.
